The origin of these recorded values is paper PMC10786919.

assay: Lactate dehydrogenase (LDH) release assay; type: cell-based; settings: 0% FBS 4Hr; read-out: LDH: Cytotoxicity assay: EC50
pEC50: −log10 of the molar value. Positions of bridges follow the written chain, without caps; N, C: chain ends. Non-standard residues stand in square brackets, D forms with d. Residues, ends and D or L forms follow the SMILES beside them. Lys(N3) = [N-]=[N+]=NCCCC[C@H](N)C(=O)O; R8 = C=CCCCCCC[C@@](C)(N)C(=O)O; Cba = N[C@@H](CC1CCC1)C(=O)O; S5 = C=CCCC[C@](C)(N)C(=O)O; βAla = NCCC(=O)O
quantityMeasured: pEC50

**Query** For the molecule CC(=O)N[C@@H](CCCCN=[N+]=[N-])C(=O)NCCC(=O)N[C@@H](CC(C)C)C(=O)N[C@H](C(=O)N[C@@H](Cc1ccccc1)C(=O)N[C@]1(C)CCCCCCC=CCCC[C@@](C)(C(=O)NCC(=O)N[C@@H](C)C(=O)N[C@@H](C)C(N)=O)NC(=O)[C@H](CC2CCC2)NC(=O)[C@H](CCC(N)=O)NC(=O)[C@H](C)NC(=O)[C@H](Cc2c[nH]c3ccccc23)NC(=O)[C@H](Cc2ccc(O)cc2)NC(=O)[C@H](CCC(=O)O)NC1=O)[C@@H](C)O [MP-798] (Ac-[Lys(N3)][βAla]LTF[R8]EYWAQ[Cba][S5]GAA-NH2; staple 6-13) , give its reported pEC50.
**Result** < 4.30

Turning now to a further molecule:
**Query** Provide measured pEC50 value, entry: CC(=O)N[C@@H](CCCCN=[N+]=[N-])C(=O)NCCC(=O)N[C@@H](CC(C)C)C(=O)N[C@H](C(=O)N[C@@H](Cc1ccccc1)C(=O)N[C@]1(C)CCCCCCC=CCCC[C@@](C)(C(=O)N[C@@H](CO)C(=O)N[C@@H](C)C(=O)N[C@@H](C)C(N)=O)NC(=O)[C@H](CC2CCC2)NC(=O)[C@H](CCC(N)=O)NC(=O)[C@H](C)NC(=O)[C@H](Cc2c[nH]c3cc(Cl)ccc23)NC(=O)[C@H](Cc2ccc(CP(=O)(O)O)cc2)NC(=O)[C@H](CCC(=O)O)NC1=O)[C@@H](C)O [MP-891]
**Result** < 4.30

====

Below, each entry is listed alongside its reported EPSA.
assay: physchem
Positions of bridges follow the written chain, without caps; N, C: chain ends. Non-standard residues stand in square brackets, D forms with d. Residues, ends and D or L forms follow the SMILES beside them. Lys(N3) = [N-]=[N+]=NCCCC[C@H](N)C(=O)O; R8 = C=CCCCCCC[C@@](C)(N)C(=O)O; Cba = N[C@@H](CC1CCC1)C(=O)O; S5 = C=CCCC[C@](C)(N)C(=O)O; βAla = NCCC(=O)O
Quick note: give the figure in A^2, leave out the unit.

**Query** Specify reported EPSA for the compound shown: CC(=O)N[C@@H](CCCCN=[N+]=[N-])C(=O)NCCC(=O)N[C@@H](CC(C)C)C(=O)N[C@H](C(=O)N[C@@H](Cc1ccccc1)C(=O)N[C@]1(C)CCCCCCC=CCCC[C@@](C)(C(=O)N[C@@H](CO)C(=O)N[C@@H](C)C(=O)N[C@@H](C)C(N)=O)NC(=O)[C@H](CC2CCC2)NC(=O)[C@H](CCC(N)=O)NC(=O)[C@H](Cc2c[nH]cn2)NC(=O)[C@H](Cc2c[nH]c3ccccc23)NC(=O)[C@H](Cc2ccc(O)cc2)NC(=O)[C@H](CCC(=O)O)NC1=O)[C@@H](C)O [MP-496, AZIDE-ATSP-7041 (A8H)]
**Result** 214

**Query** Please look at this compound and report its EPSA: `CC(=O)N[C@@H](CCCCN=[N+]=[N-])C(=O)NCCC(=O)N[C@H](C)C(=O)N[C@H](C(=O)N[C@@H](Cc1ccccc1)C(=O)N[C@]1(C)CCCCCCC=CCCC[C@@](C)(C(=O)N[C@@H](CO)C(=O)N[C@@H](C)C(=O)N[C@@H](C)C(N)=O)NC(=O)[C@H](CC2CCC2)NC(=O)[C@H](CCC(N)=O)NC(=O)[C@H](C)NC(=O)[C@H](Cc2c[nH]c3ccccc23)NC(=O)[C@H](Cc2ccc(O)cc2)NC(=O)[C@H](CCC(=O)O)NC1=O)[C@@H](C)O`
**Result** 228

**Query** Indicate the recorded EPSA value for this compound: CC(=O)N[C@@H](CC(C)C)C(=O)N[C@H](C(=O)N[C@@H](Cc1ccccc1)C(=O)N[C@]1(C)CCCCCCC=CCCC[C@@](C)(C(=O)N[C@@H](CO)C(=O)N[C@@H](C)C(=O)N[C@@H](C)C(N)=O)NC(=O)[C@H](CC2CCC2)NC(=O)[C@H](C)NC(=O)[C@H](C)NC(=O)[C@H](Cc2c[nH]c3ccccc23)NC(=O)[C@H](Cc2ccc(O)cc2)NC(=O)[C@H](CCC(=O)O)NC1=O)[C@@H](C)O [MP-865] (Ac-LTF[R8]EYWAA[Cba][S5]SAA-NH2; staple 4-11)
**Result** 211

**Query** Please give the documented EPSA of `CC(=O)N[C@@H](CC(C)C)C(=O)N[C@H](C(=O)N[C@@H](Cc1ccccc1)C(=O)NC(C)(C)C(=O)N[C@@H](CCC(=O)O)C(=O)N[C@@H](Cc1ccc(O)cc1)C(=O)N[C@@H](Cc1c[nH]c2ccccc12)C(=O)N[C@H](CCC(N)=O)C(=O)N[C@@H](CC(C)C)C(=O)N[C@@H](CC1CCC1)C(=O)NC(C)(C)C(=O)N[C@@H](CO)C(=O)N[C@@H](C)C(=O)N[C@@H](C)C(N)=O)[C@@H](C)O`
**Result** 187

// next item, EPSA requested
**Query** Identify measured EPSA associated with CC(=O)N[C@@H](CCCCN=[N+]=[N-])C(=O)NCCC(=O)N[C@@H](CC(C)C)C(=O)N[C@H](C(=O)N[C@@H](CO)C(=O)N[C@]1(C)CCCCCCC=CCCC[C@@](C)(C(=O)N[C@@H](CO)C(=O)N[C@@H](C)C(=O)N[C@@H](C)C(N)=O)NC(=O)[C@H](CO)NC(=O)[C@H](CCC(N)=O)NC(=O)[C@H](C)NC(=O)[C@H](CO)NC(=O)[C@H](Cc2ccc(O)cc2)NC(=O)[C@H](CCC(=O)O)NC1=O)[C@@H](C)O [MP-3352] (Ac-[Lys(N3)][βAla]LTS[R8]EYSAQS[S5]SAA-NH2; staple 6-13)
**Result** 197

====

experiment: Experimental LogD (partition coefficient); conditions: not stated, Partition Coeff LogD
quantityMeasured: logD
Please respond with just the number, no unit label.

**Query** Item CC(=O)N[C@@H](CCCCN=[N+]=[N-])C(=O)NCCC(=O)N[C@@H](CC(N)=O)C(=O)N[C@H](C(=O)N[C@@H](Cc1ccccc1)C(=O)N[C@]1(C)CCCCCCC=CCCC[C@@](C)(C(=O)N[C@@H](CO)C(=O)N[C@@H](C)C(=O)N[C@@H](C)C(N)=O)NC(=O)[C@H](CC2CCC2)NC(=O)[C@H](CCC(N)=O)NC(=O)[C@H](CC(N)=O)NC(=O)[C@H](Cc2c[nH]c3ccccc23)NC(=O)[C@H](Cc2ccc(O)cc2)NC(=O)[C@H](CC(N)=O)NC1=O)[C@@H](C)O [MP-497] : provide logD
**Result** 2.49

====

system: HCT116 cells; experiment: Lactate dehydrogenase (LDH) release assay; assay type: cell-based
Positions of bridges follow the written chain, without caps; N, C: chain ends. Non-standard residues stand in square brackets, D forms with d. Residues, ends and D or L forms follow the SMILES beside them. Trp(6-Cl) = N[C@@H](Cc1c[nH]c2cc(Cl)ccc12)C(=O)O; R8 = C=CCCCCCC[C@@](C)(N)C(=O)O; Cba = N[C@@H](CC1CCC1)C(=O)O; S5 = C=CCCC[C@](C)(N)C(=O)O
quantityMeasured: LDH: Cytotoxicity assay % Effect (%)
Write the value in % as a bare number.

**Query** For CC(=O)N[C@H](C(=O)N[C@@H](CO)C(=O)N[C@@H](Cc1ccccc1)C(=O)N[C@]1(C)CCCCCCC=CCCC[C@@](C)(C(=O)N[C@@H](CCC(=O)O)C(N)=O)NC(=O)[C@H](CC2CCC2)NC(=O)[C@H](CC(C)C)NC(=O)[C@H](C)NC(=O)[C@H](Cc2c[nH]c3cc(Cl)ccc23)NC(=O)[C@H](Cc2ccc(O)cc2)NC(=O)[C@H](CCC(=O)O)NC1=O)[C@@H](C)O [MP-043] (Ac-TSF[R8]EY[Trp(6-Cl)]AL[Cba][S5]E-NH2; staple 4-11) , write its LDH: Cytotoxicity assay % Effect.
**Result** 3.493
